# Test system: KASUMI-9;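 further: ALL cell lines in 384-well plates, five doses spanning 10,000-fold, each plate scaled between vehicle and 100 µmol/L benzalkonium chloride controls, sDSS an adapted area-under-curve metric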
# experiment_notes: selective drug sensitivity score (sDSS, relative to normal bone marrow) (sDSS (score)); higher = more potent and effective on the cell line relative to normal bone marrow cells
# reported_conditions: 72 h
measured_property: selective drug sensitivity score
Enter a number only.

Record excerpt, results attached:
COc1cc2c(N3CCN(C(=O)Nc4ccc(OC(C)C)cc4)CC3)ncnc2cc1OCCCN1CCCCC1 [Tandutinib] (top concentration 1000 nM) :: 0
CCOC(=O)C1=CCCC[C@H]1S(=O)(=O)Nc1ccc(F)cc1Cl [Resatorvid] (top concentration 10000 nM) :: 0

Lookup result for O=C1CN2Cc3c(ccc(Cl)c3Cl)N=C2N1 [Anagrelide] (top concentration 10000 nM) ; measured selective drug sensitivity score: 0
